- Test system: Mus musculus
- Procedure details: Toxicity in C57BL/6 mouse allografted with mouse LLC cells at 0.05 to 0.2 mg/kg, ip administered thrice a week for 2 weeks starting 24 hrs before tumor implantation by clinical test
- Type: organism-based
- Assay conditions: in vivo
Assay readout: Activity

COc1ccc(Cn2nc(-c3ccccc3)c3cc(Cl)nc(N4CCNCC4)c32)cc1    Non-Toxic
COc1ccc(Cn2nc(-c3ccccc3)c3cc(Nc4ccc(N5CCN(C)CC5)cc4)nc(N4CCN(C)CC4)c32)cc1    Non-Toxic
COc1ccc(Cn2nc(-c3ccccc3)c3cc(Nc4ccccc4)nc(N4CCNCC4)c32)cc1    Non-Toxic
COc1ccc(Cn2nc(-c3ccccc3)c3cc(Nc4ccc(N5CCN(C)CC5)cc4)nc(N4CCNCC4)c32)cc1    Non-Toxic

====

- System: Vascular endothelial growth factor receptor 2 (Homo sapiens)
- Procedure details: Inhibition of VEGF-165-induced VEGFR2 autophosphorylation at Tyr1175 in serum-starved HUVEC at 2 uM preincubated for 2 hrs followed by VEGF-165 induction measured after 5 mins by Western blot analysis
- Format: cell-based
The source made the active and inactive calls. The calls are words filed in the database; no cut-off is given here.
Assay readout: inhibition

COc1ccc(Cn2nc(-c3ccccc3)c3cc(Nc4ccccc4)nc(N4CCNCC4)c32)cc1    Active
COc1ccc(Cn2nc(-c3ccccc3)c3cc(Nc4ccc(N5CCN(C)CC5)cc4)nc(N4CCN(C)CC4)c32)cc1    Active
COc1ccc(Cn2nc(-c3ccccc3)c3cc(Cl)nc(N4CCNCC4)c32)cc1    Active
COc1ccc(Cn2nc(-c3ccccc3)c3cc(Nc4ccc(N5CCN(C)CC5)cc4)nc(N4CCNCC4)c32)cc1    Active
